Entries and their IC50
molecular target: UniProt:P41145; assay: biochemical
Description: In vitro binding affinity against cloned human Opioid receptor kappa 1 expressed in HEK 293S cells

Example compounds with recorded IC50:
C[C@@H]1[C@H]2c3cc(N4CCOCC4)ccc3C[C@@H](c3ccc(N4CCOCC4)cc32)N1C = > 10 µM
C[C@@H]1[C@H]2c3cc(Br)ccc3C[C@@H](c3ccc(Br)cc32)N1CC1CC1 = > 4.9 µM
C[C@@H]1[C@H]2c3cc(O)ccc3C[C@@H](c3ccc(O)cc32)N1C = 0.961 µM

Now consider the entry below.
Consider COc1cc2c(cc1OC)[C@H]1c3cc(OC)c(OC)cc3[C@H](C2)N(CC2CC2)[C@@H]1C . Its measured IC50 is > 10 µM

----------
molecular target: Kappa-type opioid receptor (Homo sapiens); experiment: biochemical
Sequence (P41145 whole entry): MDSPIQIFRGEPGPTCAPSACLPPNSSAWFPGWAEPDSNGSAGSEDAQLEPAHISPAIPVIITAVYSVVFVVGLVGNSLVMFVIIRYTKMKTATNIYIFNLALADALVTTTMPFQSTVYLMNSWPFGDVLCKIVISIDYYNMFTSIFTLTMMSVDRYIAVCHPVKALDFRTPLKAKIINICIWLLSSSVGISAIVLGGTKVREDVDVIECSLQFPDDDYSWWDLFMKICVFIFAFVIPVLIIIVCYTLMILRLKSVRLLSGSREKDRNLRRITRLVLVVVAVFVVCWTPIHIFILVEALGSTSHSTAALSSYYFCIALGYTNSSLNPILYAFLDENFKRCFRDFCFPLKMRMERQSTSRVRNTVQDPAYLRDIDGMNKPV
readout_name: log10 IC50 (log10 of the value in µM)
Short version: log10 scale, IC50, µM.

Example compounds with recorded log10 IC50:
CN1[C@@H]2Cc3ccccc3[C@@H](c3ccccc32)[C@@H]1Cc1ccccc1 = 0.23
C[C@@H]1[C@H]2c3cc(NCc4ccccc4)ccc3C[C@@H](c3ccc(NCc4ccccc4)cc32)N1CC1CC1 = -1.51
COc1ccc2c(c1)[C@H]1c3cc(OC)ccc3[C@H](C2)N(CC2CC2)[C@@H]1C = 0.73

Record for c1ccc2c(c1)C[C@H]1c3ccccc3[C@H]2[C@@H]2CCCN12 under target or system Kappa-type opioid receptor (Homo sapiens): log10 IC50 reported as 0.79

Record for CC(C)C[C@H]1[C@H]2c3ccccc3C[C@H](c3ccccc32)N1C under target or system Kappa-type opioid receptor (Homo sapiens): log10 IC50 reported as 0.47

Record for C[C@@H]1[C@H]2c3cc(Nc4ccccc4)ccc3C[C@@H](c3ccc(Nc4ccccc4)cc32)N1C under target or system Kappa-type opioid receptor (Homo sapiens): log10 IC50 reported as 0.56

Record for Brc1ccc(CNc2ccc3c(c2)[C@H]2c4cc(NCc5ccc(Br)cc5)ccc4[C@H](C3)N3CCC[C@@H]23)cc1 under target or system Kappa-type opioid receptor (Homo sapiens): log10 IC50 reported as 0.85

Record for C[C@@H]1[C@H]2c3cc(N4CCN(C)CC4)ccc3C[C@@H](c3ccc(N4CCN(C)CC4)cc32)N1CC1CC1 under target or system Kappa-type opioid receptor (Homo sapiens): log10 IC50 reported as 0.20

Record for CN1CC[C@]23CCCC[C@H]2[C@H]1Cc1ccc(O)cc13 under target or system Kappa-type opioid receptor (Homo sapiens): log10 IC50 reported as -2.40

Record for C[C@@H]1[C@H]2c3cc(Br)ccc3C[C@@H](c3ccc(Br)cc32)N1C under target or system Kappa-type opioid receptor (Homo sapiens): log10 IC50 reported as 0.84

Record for Oc1ccc2c(c1)[C@H]1c3cc(O)ccc3[C@H](C2)N2CCC[C@@H]12 under target or system Kappa-type opioid receptor (Homo sapiens): log10 IC50 reported as 0.86

----------
target: Delta-type opioid receptor (Homo sapiens); experiment: In vitro binding affinity against cloned human Opioid receptor delta 1 expressed in HEK 293S cells
Sequence (P41143 whole entry): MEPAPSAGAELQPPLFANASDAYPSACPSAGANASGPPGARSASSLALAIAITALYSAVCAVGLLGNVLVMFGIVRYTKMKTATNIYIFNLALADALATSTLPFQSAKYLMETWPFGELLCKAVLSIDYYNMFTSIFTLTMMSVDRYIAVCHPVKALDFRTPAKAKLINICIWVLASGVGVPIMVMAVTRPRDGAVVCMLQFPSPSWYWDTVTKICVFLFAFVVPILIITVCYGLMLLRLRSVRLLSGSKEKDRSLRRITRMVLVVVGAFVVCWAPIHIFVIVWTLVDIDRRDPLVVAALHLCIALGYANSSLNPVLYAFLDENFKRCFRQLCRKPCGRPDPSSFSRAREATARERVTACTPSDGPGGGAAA
readout_name: pIC50
FYI, pIC50 means -log10 of a concentration in mol per litre.

C[C@@H]1[C@H]2c3cc(O)ccc3C[C@@H](c3ccc(O)cc32)N1C = 5.89
Oc1ccc2c(c1)[C@H]1c3cc(O)ccc3[C@H](C2)N2CCC[C@@H]12 = 5.42
C[C@@H]1[C@H]2c3cc(NCc4ccccc4)ccc3C[C@@H](c3ccc(NCc4ccccc4)cc32)N1C = 6.92

Record for C[C@@H]1[C@H]2c3cc(Nc4ccccc4)ccc3C[C@@H](c3ccc(Nc4ccccc4)cc32)N1C under target or system Delta-type opioid receptor (Homo sapiens): pIC50 reported as 6.28

Data origin, for the record: ChEMBL document CHEMBL1145019
